target-or-system: Alpha-2C adrenergic receptor (Homo sapiens) (UniProt P18825)
Sequence (P18825 whole entry, looked up): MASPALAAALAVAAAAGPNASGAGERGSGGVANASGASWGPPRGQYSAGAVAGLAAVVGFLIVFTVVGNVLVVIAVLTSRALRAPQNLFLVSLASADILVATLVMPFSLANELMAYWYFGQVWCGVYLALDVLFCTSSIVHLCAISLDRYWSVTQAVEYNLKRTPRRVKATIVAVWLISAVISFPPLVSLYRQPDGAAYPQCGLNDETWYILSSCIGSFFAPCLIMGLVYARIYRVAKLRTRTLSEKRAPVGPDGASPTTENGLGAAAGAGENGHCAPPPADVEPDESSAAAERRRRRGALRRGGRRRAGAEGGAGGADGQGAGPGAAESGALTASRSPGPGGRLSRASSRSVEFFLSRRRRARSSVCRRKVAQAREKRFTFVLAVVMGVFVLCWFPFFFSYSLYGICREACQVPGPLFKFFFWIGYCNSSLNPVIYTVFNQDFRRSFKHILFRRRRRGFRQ
method: compounds altering alpha2C-coupled GIRK flux – cell-based, HEK293 alpha2C/GIRK1/2, thallium flux, primary screen (AID 624);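 further: slope of fluorescence ratio to pre-addition baseline per second over 15 to 24 s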
measurement-context: thallium flux BTC fluorescence, at 10 µM, actives lie on both sides
Threshold 0.005: slope strictly smaller gives YES, otherwise NO.

{"compound": "CCN1CCN(Cc2nc3c(c(=O)n(C)c(=O)n3C)n2CC(=O)c2ccccc2)CC1", "assigned-label": "NO"}
{"compound": "C=C(C)c1cccc(C(C)(C)NC(=O)NCC2CCCO2)c1 (configuration not stated)", "assigned-label": "NO"}
{"compound": "O=C(Nc1cccc(C(F)(F)F)c1)c1ccco1", "assigned-label": "YES"}
{"compound": "CCOc1ccc2[nH]c(=O)c(C(c3nnnn3CC3CCCO3)N3CCc4ccccc4C3)cc2c1 (configuration not stated)", "assigned-label": "NO"}
{"compound": "COc1cccc(C2CC(=O)Nc3cc4c(cc32)OCCO4)c1OC(C)C (configuration not stated)", "assigned-label": "NO"}
{"compound": "Cc1[nH]nc2c1C1(C(=O)N(Cc3ccc(Cl)cc3)c3ccccc31)C(C#N)=C(N)O2 (configuration not stated)", "assigned-label": "NO"}
{"compound": "O=S(=O)(c1ccccc1)c1nc(-c2ccco2)oc1NCCCN1CCOCC1", "assigned-label": "YES"}
{"compound": "c1ccn2c(SCc3cn4ccsc4n3)nnc2c1", "assigned-label": "NO"}
{"compound": "CCOC(=O)C1=C(O)C(=O)N(c2ccc(S(N)(=O)=O)cc2)C1c1ccccc1 (configuration not stated)", "assigned-label": "YES"}
{"compound": "Nc1c(S(=O)(=O)c2cccs2)c2nc3ccccc3nc2n1CC1CCCO1 (configuration not stated)", "assigned-label": "YES"}
{"compound": "CCCCCn1c(N2CCN(Cc3ccccc3)CC2)nc2c1c(=O)[nH]c(=O)n2C", "assigned-label": "YES"}
{"compound": "O=C1C(C=NCCCn2ccnc2)=C(O)c2ccccc21", "assigned-label": "NO"}
{"compound": "CCCc1nc(NCc2ccncc2)c2nnn(Cc3ccccc3F)c2n1", "assigned-label": "NO"}
{"compound": "COc1ccc(N2CCN(C(c3cccs3)c3nnnn3C3CCCC3)CC2)cc1 (configuration not stated)", "assigned-label": "NO"}
{"compound": "COc1ccc(OCC(O)Cn2c(Br)nc3c2c(=O)[nH]c(=O)n3C)cc1 (configuration not stated)", "assigned-label": "YES"}
{"compound": "S=c1[nH]ncn1-c1ccccn1", "assigned-label": "YES"}
{"compound": "CC(C)OC(=O)c1ccc(OC(=O)c2cccnc2)cc1", "assigned-label": "NO"}
{"compound": "CCOc1ccc(S(=O)(=O)n2nc(C)cc2C)c2ccccc12", "assigned-label": "NO"}
{"compound": "O=C1CCCC2=C1C1(CCCC1)N=C(Nc1nc3ccccc3s1)N2", "assigned-label": "YES"}
{"compound": "O=C(Nc1nnc(N2CCCCCC2)s1)c1cc(-c2ccc(Br)cc2)on1", "assigned-label": "NO"}
